molecular target: heat shock 70 kDa protein (HSP70) (Homo sapiens, UniProt P0DMV8); construct: purchased Sino Biological 11660-H07H; assay: nDEL affinity selection against HSP70 (enrichment fold by deep sequencing); format: binding; details: ratio of normalized sequencing counts in presence and absence of target protein; DNA-encoded compound
Sequence (P0DMV8 whole entry): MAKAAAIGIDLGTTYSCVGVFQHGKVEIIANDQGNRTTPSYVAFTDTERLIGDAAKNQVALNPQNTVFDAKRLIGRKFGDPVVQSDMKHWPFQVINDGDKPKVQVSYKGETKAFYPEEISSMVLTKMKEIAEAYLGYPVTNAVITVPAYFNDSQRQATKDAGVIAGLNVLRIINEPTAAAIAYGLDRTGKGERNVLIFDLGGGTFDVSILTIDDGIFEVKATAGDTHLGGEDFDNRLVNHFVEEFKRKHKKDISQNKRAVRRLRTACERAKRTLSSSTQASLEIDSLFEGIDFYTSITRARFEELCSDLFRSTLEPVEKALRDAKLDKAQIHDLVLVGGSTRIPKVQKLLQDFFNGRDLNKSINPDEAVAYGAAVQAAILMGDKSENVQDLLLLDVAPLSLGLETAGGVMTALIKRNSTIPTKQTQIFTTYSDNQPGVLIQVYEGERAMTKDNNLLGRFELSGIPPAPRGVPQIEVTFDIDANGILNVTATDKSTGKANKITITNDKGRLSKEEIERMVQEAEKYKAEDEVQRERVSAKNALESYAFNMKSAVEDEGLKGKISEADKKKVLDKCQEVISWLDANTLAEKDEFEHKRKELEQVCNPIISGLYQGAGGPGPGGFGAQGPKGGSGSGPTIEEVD
# Enrichment Fold, HSP70 binder selection per entry
OUTCOME MEASURE: Enrichment Fold, HSP70 binder selection

MOLECULE	EXPERIMENTAL SYSTEM	OUTCOME MEASURE	OBS VALUE
O=C1c2ccccc2C(=O)c2c1ccc(O)c2O	heat shock 70 kDa protein (HSP70) (Homo sapiens, UniProt P0DMV8)	Enrichment Fold, HSP70 binder selection	4.3
C[C@@H]1O[C@@H](O[C@H]2[C@H](Oc3cc(O)c4c(c3)O[C@H](c3ccc(O)cc3)CC4=O)O[C@H](CO)[C@@H](O)[C@@H]2O)[C@H](O)[C@H](O)[C@H]1O	heat shock 70 kDa protein (HSP70) (Homo sapiens, UniProt P0DMV8)	Enrichment Fold, HSP70 binder selection	4.5
O=C1C[C@@H](c2ccc(O[C@@H]3O[C@H](CO)[C@@H](O)[C@H](O)[C@H]3O)cc2)Oc2cc(O)ccc21	heat shock 70 kDa protein (HSP70) (Homo sapiens, UniProt P0DMV8)	Enrichment Fold, HSP70 binder selection	3.9
Cc1ncc(CO)c(CO)c1O [Pyridoxine, reference compound]	heat shock 70 kDa protein (HSP70) (Homo sapiens, UniProt P0DMV8)	Enrichment Fold, HSP70 binder selection	3.4

====

# Enrichment Fold, HSP70 binder selection per entry
biological target: heat shock 70 kDa protein (HSP70) (Homo sapiens); construct: purchased Sino Biological 11660-H07H; assay: nDEL affinity selection against HSP70 (enrichment fold by deep sequencing); type: binding; conditions: ratio of normalized sequencing counts in presence and absence of target protein; DNA-encoded compound

COMPOUND	Enrichment Fold, HSP70 binder selection
O=c1ccc2ccc(O)cc2o1 [7-Hydroxycoumarin]	4.2
O=C(CCc1ccc(O)cc1)c1c(O)cc(O)cc1O[C@@H]1O[C@H](CO)[C@@H](O)[C@H](O)[C@H]1O	3.8
O=C(O)c1ccc(O)c(O)c1	3.8
C[C@H]1[C@H](OC(=O)CCC(=O)O)O[C@@H]2O[C@@]3(C)CC[C@H]4[C@H](C)CC[C@@H]1[C@@]24OO3 [Artesunate]	2.4
CNCC(O)c1ccc(O)cc1 (stereo not shown) [Synephrine]	3.2
O=c1ccc2ccc(O)c(O)c2o1	3.9
COC(=O)Nc1nc2ccc(C(=O)c3cccs3)cc2[nH]1 [Nocodazole, reference compound]	3.9
Cn1cnc2c1c(=O)[nH]c(=O)n2C [Theobromine, reference compound]	4.3
CC1=CC(=O)c2c(O)cccc2C1=O	4.4
CC(=O)c1c(O)cc(O)cc1O	3.5
COc1cc2c(cc1O)CC[n+]1cc3c(OC)c(OC)ccc3cc1-2 [Jatrorrhizine]	3.7
COc1cc2ccc(=O)oc2cc1O	6.0
Cn1c(=O)c2c(ncn2CC(=O)O)n(C)c1=O [Theophylline-7-acetic acid, Theophylline-7-acetic acid, reference compound]	3.3

====

molecular target: poly [ADP-ribose] polymerase 1 (PARP1) (Homo sapiens); construct: purchased Sino Biological 11040-H08B; assay: nDEL affinity selection against PARP-1 (enrichment fold by deep sequencing); type: binding; details: ratio of normalized sequencing counts in presence and absence of target protein; DNA-encoded compound
Sequence (P09874 whole entry): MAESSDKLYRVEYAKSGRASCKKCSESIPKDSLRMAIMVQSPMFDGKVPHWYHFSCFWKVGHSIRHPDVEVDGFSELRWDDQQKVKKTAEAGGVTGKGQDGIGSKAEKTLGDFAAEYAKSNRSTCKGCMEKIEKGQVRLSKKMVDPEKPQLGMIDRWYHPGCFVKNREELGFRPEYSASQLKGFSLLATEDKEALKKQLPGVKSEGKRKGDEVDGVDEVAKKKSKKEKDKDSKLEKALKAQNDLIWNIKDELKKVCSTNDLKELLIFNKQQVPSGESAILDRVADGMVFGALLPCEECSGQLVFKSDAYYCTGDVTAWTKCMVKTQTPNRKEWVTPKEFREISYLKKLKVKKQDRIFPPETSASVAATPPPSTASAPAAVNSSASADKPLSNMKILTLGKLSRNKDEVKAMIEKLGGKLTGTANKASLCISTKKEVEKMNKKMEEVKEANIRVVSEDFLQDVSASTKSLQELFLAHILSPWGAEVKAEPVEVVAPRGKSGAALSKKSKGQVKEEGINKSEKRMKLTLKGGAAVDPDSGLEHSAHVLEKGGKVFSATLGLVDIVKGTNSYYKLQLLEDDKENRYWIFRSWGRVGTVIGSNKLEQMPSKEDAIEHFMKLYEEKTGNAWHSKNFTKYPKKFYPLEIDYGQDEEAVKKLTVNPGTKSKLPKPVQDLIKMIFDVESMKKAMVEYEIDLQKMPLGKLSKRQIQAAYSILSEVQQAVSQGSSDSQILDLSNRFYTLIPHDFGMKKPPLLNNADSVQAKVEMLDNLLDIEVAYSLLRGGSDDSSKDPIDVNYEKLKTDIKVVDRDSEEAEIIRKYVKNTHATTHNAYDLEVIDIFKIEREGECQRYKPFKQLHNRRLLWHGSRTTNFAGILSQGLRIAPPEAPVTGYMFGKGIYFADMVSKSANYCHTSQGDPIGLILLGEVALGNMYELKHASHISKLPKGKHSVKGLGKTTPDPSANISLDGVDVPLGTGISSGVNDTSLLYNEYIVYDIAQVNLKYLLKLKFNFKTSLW
Structures can show the parent of a compound that is named as a salt.
OUTCOME MEASURE: Fold Change, enrichment folds for PARP-1 binder selection

COMPOUND	EXPERIMENTAL SYSTEM	OBS VALUE
O=C1C[C@@H](c2ccc(O[C@@H]3O[C@H](CO)[C@@H](O)[C@H](O)[C@H]3O)cc2)Oc2cc(O)ccc21 [Liquiritin]	poly [ADP-ribose] polymerase 1 (PARP1) (Homo sapiens)	2.66
O=C(O[C@@H]1Cc2c(O)cc(O)cc2O[C@@H]1c1ccc(O)c(O)c1)c1cc(O)c(O)c(O)c1 [(−)-Epicatechin gallate, (−)- Epicatechingallate]	poly [ADP-ribose] polymerase 1 (PARP1) (Homo sapiens)	2.81
COc1cc2c(cc1O)CC[n+]1cc3c(OC)c(OC)ccc3cc1-2 [Jatrorrhizine hydrochloride]	poly [ADP-ribose] polymerase 1 (PARP1) (Homo sapiens)	2.23
Oc1cc(O)c2c(c1)O[C@H](c1cc(O)c(O)c(O)c1)[C@H](O)C2 [Epigallocatechin, epigallocatechin]	poly [ADP-ribose] polymerase 1 (PARP1) (Homo sapiens)	2.53
COc1cc2ccc(=O)oc2c(O)c1O [Fraxetin]	poly [ADP-ribose] polymerase 1 (PARP1) (Homo sapiens)	2.01
C[C@@H]1O[C@@H](O[C@H]2[C@H](Oc3cc(O)c4c(c3)O[C@H](c3ccc(O)cc3)CC4=O)O[C@H](CO)[C@@H](O)[C@@H]2O)[C@H](O)[C@H](O)[C@H]1O [Naringin]	poly [ADP-ribose] polymerase 1 (PARP1) (Homo sapiens)	2.17
COC(=O)Nc1nc2ccc(C(=O)c3cccs3)cc2[nH]1 [Nocodazole, reference compound]	poly [ADP-ribose] polymerase 1 (PARP1) (Homo sapiens)	2.06
COc1cc2ccc(=O)oc2cc1O [Scopoletin]	poly [ADP-ribose] polymerase 1 (PARP1) (Homo sapiens)	2.82
COc1cc2c(cc1O)CC[n+]1cc3c(OC)c(OC)ccc3cc1-2 [Jatrorrhizine]	poly [ADP-ribose] polymerase 1 (PARP1) (Homo sapiens)	2.04
O=c1ccc2ccc(O)c(O)c2o1 [Daphnetin]	poly [ADP-ribose] polymerase 1 (PARP1) (Homo sapiens)	2.17
Cn1cnc2c1c(=O)[nH]c(=O)n2C [Theobromine, reference compound]	poly [ADP-ribose] polymerase 1 (PARP1) (Homo sapiens)	2.42
CNCC(O)c1ccc(O)cc1 (centres unmarked) [Synephrine]	poly [ADP-ribose] polymerase 1 (PARP1) (Homo sapiens)	2.17
CC1=CC(=O)c2c(O)cccc2C1=O [Plumbagin]	poly [ADP-ribose] polymerase 1 (PARP1) (Homo sapiens)	2.97
O=C1c2ccccc2C(=O)c2c1ccc(O)c2O [Alizarin]	poly [ADP-ribose] polymerase 1 (PARP1) (Homo sapiens)	2.02
